The entries below are paired with their reported log10(EC50).
# Tested on: SARS-CoV-2-NLuc in A549-hACE2 cells
# experimental_details: microbe, parasite or virus in culture
# Assay type: cell-based, SARS Coronavirus 2
# measurement_parameters: Severe acute respiratory syndrome coronavirus, 48 h, read-out: MPro EC50 (nM)
A value of 2 here means EC50 of 100 in nM, since values are log10.

- smiles_record: "Cn1ncc2cncc(-n3c(=O)c4oc(-c5ccccc5Cl)cc4n(CCC#N)c3=O)c21"
  target_of_assay: "SARS-CoV-2-NLuc in A549-hACE2 cells"
  value_measured: 1.44
- smiles_record: "Cc1cncc(-n2c(=O)c3oc(-c4ccccc4Cl)cc3n(CC3(C#N)CC3)c2=O)c1"
  target_of_assay: "SARS-CoV-2-NLuc in A549-hACE2 cells"
  value_measured: 1.11
- smiles_record: "N#CC1(Cn2c(=O)n(-c3cncc4ccccc34)c(=O)c3oc(-c4ccc(F)cc4Cl)cc32)CC1"
  target_of_assay: "SARS-CoV-2-NLuc in A549-hACE2 cells"
  value_measured: 1.26
- smiles_record: "Cn1c(=O)n(-c2cncc3ccccc23)c(=O)c2cc(-c3ccccc3Cl)oc21"
  target_of_assay: "SARS-CoV-2-NLuc in A549-hACE2 cells"
  value_measured: 2.16

Item N#CCCn1c(=O)n(-c2cncc3c2CCCC3)c(=O)c2oc(-c3ccccc3Cl)cc21 : provide log10(EC50)
1.47

Fill in reported log10(EC50) for this entry: N#CC1(Cn2c(=O)n(-c3cncc4ccccc34)c(=O)c3oc(-c4ccccc4Cl)cc32)CC1
0.84

Supply recorded log10(EC50) for Cn1ncc2cncc(-n3c(=O)c4oc(-c5ccccc5Cl)cc4n(C)c3=O)c21 here.
3.07

Note down log10(EC50) recorded for COc1cc(-c2cc3c(o2)c(=O)n(-c2cncc4cnn(C)c24)c(=O)n3CC#N)c(Cl)cc1F
1.71
